assay-overview: C0 in mouse at 10 mg/kg, iv
Format: ADME, organism-based
condition-label: in vivo
measured-property: C0

[[record]]
structure_string = "CC1(C)CC(=O)c2c(C(F)(F)F)nn(Cc3ccc(C(=O)NO)cc3)c2C1"
result = "4290 ng/mL"


----------
assay-overview: Tmax in dog at 5 mg/kg, po
Format: ADME, organism-based, Canis lupus familiaris
condition-label: in vivo
measured-property: Tmax (min)

[[record]]
structure_string = "CC1(C)CC(=O)c2c(C(F)(F)F)nn(Cc3ccc(C(=O)NO)cc3)c2C1"
number = 24


----------
assay-overview: Clearance in dog at 0.5 mg/kg, iv
Format: ADME, organism-based, Canis lupus familiaris
condition-label: in vivo
measured-property: clearance (mL/min/kg)

[[record]]
structure_string = "CC1(C)CC(=O)c2c(C(F)(F)F)nn(Cc3ccc(C(=O)NO)cc3)c2C1"
measured_property = "clearance"
number = 18.8


Entry source: ChEMBL document CHEMBL5523684
